System: 786-0 renal
Experiment: NCI-60 one-dose screen, 48 h (100 = growth as untreated, 0 = no growth, -100 = all killed)
Conditions: 10 µM unless noted
Method: Cells are grown in 96 well plates and exposed to the test compound for 48 hours. Compounds are tested at a single concentration, which is 10^-5 M for most compounds. The reported endpoint is percent growth (GI% or GIPRCNT), where numbers from 0 - 100% represent growth inhibition, and numbers from -100% - 0 represent cell death. For example, a value of 40 represents 60% growth inhibition. A value of 0 means no net growth occurred over the course of the experiment. […]
This is part of a sample that, as a whole, favours compounds with a hit. Of some 83,000 tested, about 20% had one in any assay.
Kindly return true (1) if reported growth is no lower than 30%; return false (0) if it is lower.

Inquiry: I'd appreciate it if you could say whether `Cc1ccc(NC(=O)c2[nH]c(SCCN(C)C)nc2-c2ccc(F)cc2)cc1C#Cc1cnc2cccnn12` has growth at least equal to 30%.
Reply text: false (0)

Inquiry: I'd appreciate it if you could say whether COc1cc(C2CC(c3ccc(Cl)cc3)=NN2C=O)ccc1OS(=O)(=O)c1ccc(C)cc1 (centres undefined) has growth at least equal to 30%.
Reply text: true (1)

Inquiry: I'd appreciate it if you could say whether `CCc1oc2ccccc2c1C(=O)c1cc(I)c(O)c(I)c1` has growth at least equal to 30%.
Reply text: true (1)

* * *

test system: SK-MEL-5 melanoma; assay: NCI-60 one-dose screen, 48 h (100 = growth as untreated, 0 = no growth, -100 = all killed); conditions: 10 µM unless noted
The panel holds about 83,000 compounds, 20% with a hit somewhere; the sample as a whole holds those more often.
Each record's growth is compared with range 1: < 60%; range 2: ≥ 60% and < 90%; range 3: ≥ 90% to give its class.

Some solved entries appear below for comparison.
molecule	group
CCSc1ccc([C@@H]2[C@@H](O)C(=O)N2c2cc(OC)c(OC)c(OC)c2)cc1	range 1
NC(=O)Nc1ccc2ncnc(Nc3cccc(O)c3)c2c1	range 3
Nc1cccc(S(=O)(=O)c2cccc(N)c2)c1	range 3
O=C(O)c1cn(-c2ccccc2)nc1-c1ccc(O)cc1	range 3
CN(C)c1ccc(Nc2c3ccccc3nc3ccccc23)cc1	range 1
Nc1nc(N)c2c(n1)NC(c1sc(Cl)nc1Cl)CC(c1ccccc1)=N2 (stereo unspecified)	range 1
CC1=C(C(=O)Nc2ccc(F)cc2)C(c2ccc(C)cc2)C2=C(CC(C)(C)CC2=O)N1 (stereo unspecified)	range 3
COc1ccc2c(c1)CCCC21C(=O)Nc2c(Cl)cccc21 (stereo unspecified)	range 2

Inquiry: Please classify: `Oc1[nH]c2ccccc2c1/C=c1/ccc2c(c1)N=C(c1ccc(C(F)(F)F)cc1)N=2`
Reply text: range 2

Inquiry: Please classify: `O=C(CSc1ccc(Cl)cc1)Nc1ccc(-c2nc3ccccc3s2)c(Cl)c1`
Reply text: range 2

* * *

Tested on: NCI-H460 lung
Experiment: NCI-60 one-dose screen, 48 h (100 = growth as untreated, 0 = no growth, -100 = all killed)
Settings: 10 µM unless noted
Protocol: Growth inhibition of the NCI-H460 human Non-Small Cell Lung tumor cell line is measured as a screen for anti-cancer activity. Cells are grown in 96 well plates and exposed to the test compound for 48 hours. Compounds are tested at a single concentration, which is 10^-5 M for most compounds. The reported endpoint is percent growth (GI% or GIPRCNT), where numbers from 0 - 100% represent growth inhibition, and numbers from -100% - 0 represent cell death. […]
Compounds without any hit were thinned out: in the full panel of roughly 83,000, 20% have a hit.
value_kind: growth (%)
Give just the number in %; leave the unit off.

For orientation, consider the following solved cases.
molecule	target	value_kind	experimental_value
COC(=O)c1ccc(NC(N)=NCCC(C)(C)c2ccc(C(F)(F)F)cc2)nc1	NCI-H460 lung	growth	31.6
O=C(Nc1ccc(Cl)c(C(F)(F)F)c1)c1ccc(Nc2ccc(Cl)nn2)cc1	NCI-H460 lung	growth	74
O=[N+]([O-])c1cccc([I+]c2ccccc2)c1	NCI-H460 lung	growth	18.2
CCSc1ccc([C@@H]2[C@@H](O)C(=O)N2c2cc(OC)c(OC)c(OC)c2)cc1	NCI-H460 lung	growth	5.97
C#CC[C@@H]1C[C@]2(C)[C@H]3CC[C@@H]4[C@H]5C(C(=C)C)CC[C@]5(C(=O)NCCN(CCN)CCN)CC[C@@]4(C)[C@]3(C)CC[C@H]2C(C)(C)[C@H]1OC(C)=O (some centres undefined)	NCI-H460 lung	growth	81.8

Inquiry: Report growth for `CCN(C)CCCOc1ccc(/C(=C(\C)Cc2cccc(OC)c2)c2ccc(OC(C)=O)cc2)cc1`
Reply text: 105

Inquiry: Report growth for `COc1c(B(O)O)cccc1-c1nc2ccc3[nH]ncc3c2c2c1CCCC2`
Reply text: 8.49

Inquiry: Report growth for `CN(C)c1ccc(/C=C(\C#N)c2nc3ccccc3n2C)cc1`
Reply text: 13.8

Inquiry: Report growth for `Cc1nc2ccc(Nc3nc(Cl)nc(N4CCOCC4)n3)cc2n1Cc1ccccc1`
Reply text: 91.3

Inquiry: Report growth for `CC(C)(C)CC(C)(C)NCc1cc(C(C)(C)C)cc(CNC(C)(C)CC(C)(C)C)c1O`
Reply text: 50.8

Inquiry: Report growth for `Oc1[nH]c2ccc(Cl)cc2c1/C=c1/ccc2c(c1)N=C(c1ccc(F)cc1)N=2`
Reply text: 74.2

Inquiry: Report growth for `CCOc1cccc(/C=N/NC(=O)Cc2ccc(Nc3ccnc(C(F)(F)F)c3)cc2)c1O`
Reply text: 0.302

Inquiry: Report growth for `COc1cc2c(cc1C)NC(=O)/C2=C\c1c[nH]c2ccccc12`
Reply text: 40.6

Inquiry: Report growth for CC(C)N=C1CCCC1C(=S)SSC(=S)C1CCCC1=NC(C)C (centres undefined)
Reply text: 47.5

Inquiry: Report growth for `C#CC[C@@H]1C[C@]2(C)[C@H]3CC=C4[C@H]5[C@@H](C)[C@H](C)CC[C@]5(C(=O)NCCCCN)CC[C@@]4(C)[C@]3(C)CC[C@H]2C(C)(C)[C@H]1OC(C)=O`
Reply text: 1.45
